Ref: PubChem BioAssay (Tox21)

experiment: Caspase-3/7 induction in CHO-K1 cells by small molecules, qHTS assay (AID 1346980); settings: CHO-K1 caspase-3/7 induction, Caspase-Glo luminescence, 17 h; series mostly up to 92.4 µM; further: nearly all actives have a fitted effect of over 15% in size
Active and inactive are the calls of the source. The call rests on the fitted dose curve; in most records, active means well fitted activation curve with a large enough effect in the repeat runs; inconclusive means weak or mixed curves; inactive means flat fitted curve, though single readings scatter.
MEASURE: caspase-3/7 activation

{"SMILES_INPUT": "CCOC(=O)COc1ccc2c(C)c(CCN(CC)CC)c(=O)oc2c1Cl", "RESULT_VALUE": "inactive"}
{"SMILES_INPUT": "COC(=O)c1ccccc1Cl", "RESULT_VALUE": "inactive"}
{"SMILES_INPUT": "CCCc1ncc(C(=O)O)s1", "RESULT_VALUE": "inactive"}

---

Assay: qHTS assay to identify small molecule antagonists of the retinoid-related orphan receptor gamma (ROR-gamma) signaling pathway - cell viability counter screen (AID 1159520); further: nearly all actives have a fitted effect of over 50% in size
Conditions: Tet-on RORgamma CHO cells viability, ATP luminescence, 16 h; series mostly up to 92.4 µM
Protocol: U.S. Tox21 Program National Center for Advancing Translational Sciences [NCATS] NIH Chemical Genomics Center [NCGC] U.S. Environmental Protection Agency [EPA] National Institutes of Environmental Health Sciences [NIEHS] National Toxicology Program [NTP] U.S. Food and Drug Administration [FDA] […] Reporter gene activity was induced using Doxycycline Hyclate and measured after 16 hr incubation. […]
Inconclusive results are not listed. The source made the active and inactive calls. The call rests on the fitted dose curve; in most records, active means well fitted cell-killing curve with a large enough effect in the repeat runs; inconclusive means weak or mixed curves, or effect the other way; inactive means no such curve, though single readings can be large or run the other way.

{"SMILES_INPUT": "Cc1nc2ccc(Cl)cc2[nH]1", "activity, negative = cytotoxicity": "inactive"}
{"SMILES_INPUT": "Cc1ccccc1OCC(=O)O", "activity, negative = cytotoxicity": "inactive"}
{"SMILES_INPUT": "N=C(N)S(=O)O", "activity, negative = cytotoxicity": "inactive"}

---

assay: qHTS assay to identify small molecule agonists of the vitamin D receptor (VDR) signaling pathway - cell viability counter screen (AID 743224); settings: VDR-bla HEK293T viability, CellTiter-Glo luminescence, 16 h; series mostly up to 62.6 µM; further: nearly all actives have a fitted effect of over 50% in size
Results filed as inconclusive are left out. Activity calls are given as the source filed them. The call rests on the fitted dose curve; in most records, active means well fitted cell-killing curve with a large enough effect in the repeat runs; inconclusive means weak or mixed curves, or effect the other way; inactive means no such curve, though single readings can be large or run the other way.
MEASURE: activity change, negative = cytotoxicity

{"COMPOUND": "N[C@H]1C(O)O[C@H](CO)[C@@H](O)[C@@H]1O (stereo partly drawn)", "activity change, negative = cytotoxicity": "inactive"}
{"COMPOUND": "CC(CN1CC(=O)NC(=O)C1)N1CC(=O)NC(=O)C1 (stereo not drawn)", "activity change, negative = cytotoxicity": "inactive"}
{"COMPOUND": "CCc1ccc(CC)cc1", "activity change, negative = cytotoxicity": "inactive"}
{"COMPOUND": "C=CC(C)(CCC=C(C)C)OC(=O)C(C)C (stereo not drawn)", "activity change, negative = cytotoxicity": "inactive"}

Hi there! I need activity change, negative = cytotoxicity for each item below, if you can.
1. CC[N+](C)(CC)CC
2. CCCCNCC
3. C[n+]1ccccc1/C=N/O
4. C=C(C)C(=O)OCCCC
5. CCCC(=O)C(CC)Sc1ccoc1C (stereo not drawn)

1: inactive; 2: inactive; 3: inactive; 4: inactive; 5: inactive

Hi there! I need activity change, negative = cytotoxicity for each item below, if you can.
1. Cc1ccc2ccccc2n1
2. CC(=O)OC/C=C(/C)CCC=C(C)C
3. N#CC1(N)CCCCC1
4. C=CC(=O)OCCOCCOCC

inactive
inactive
inactive
inactive

Hi there! I need activity change, negative = cytotoxicity for each item below, if you can.
1. C=CCCCCCCCCCCCCCC
2. CN1CCN(C(=O)C2CCCCC2)CC1
3. CCCC(C)C(O)CC (stereo not drawn)
4. CCCCC(O)/C=C(C)/C=C/C=C/C(=O)N1CCCC1=O (stereo not drawn)
5. COc1cnc(NS(=O)(=O)c2ccc(N)cc2)nc1

1: inactive; 2: inactive; 3: inactive; 4: inactive; 5: inactive

Hi there! I need activity change, negative = cytotoxicity for each item below, if you can.
1. CC(O)CCCCn1c(=O)c2c(ncn2C)n(C)c1=O (stereo not drawn)
2. C=CCON/C(CCC)=C1\C(=O)CC(C)(C)C(C(=O)OC)=C1O
3. CCCCOCCCC
4. CCc1ncc(C)[nH]1
5. CC(C)(O)CCCC1=CCC(C=O)CC1 (stereo not drawn)
6. O=P(O)(O)C(O)(Cc1cccnc1)P(=O)(O)O

1. inactive
2. inactive
3. inactive
4. inactive
5. inactive
6. inactive
